- Tested on: HeLa
- protocol.details: Minimum cytotoxic concentration (MCC) required to cause a microscopically detectable alteration of host cell morphology, when incubated with HeLa cells
- Format: functional
- measurement.conditions: Homo sapiens
Attribute: MCC
readout.name: MCC

[[record]]
substance_smiles = "O=c1ccn([C@@H]2O[C@H](CO)[C@H](O)[C@@H]2O)c(=O)[nH]1"
readout_value = "> 400 µg/mL"

[[record]]
substance_smiles = "Nc1ccn([C@H]2O[C@H](CO)[C@H](O)[C@@H]2O)c(=O)n1"
readout_value = "> 400 µg/mL"

[[record]]
substance_smiles = "Nc1ncnc2c1ccn2[C@@H]1O[C@H](CO)[C@@H](O)[C@H]1O"
readout_value = "> 1 µg/mL"

[[record]]
substance_smiles = "Nc1nccc2c1ncn2[C@@H]1C[C@H](CO)[C@@H](O)[C@H]1O"
readout_value = "> 400 µg/mL"

[[record]]
substance_smiles = "Cc1cn([C@@H]2O[C@H](CO)[C@H](O)[C@@H]2O)c(=O)[nH]c1=O"
readout_value = "> 400 µg/mL"

